Task for the reader: assign each of the following compounds its reported pIC50.
Species: Homo sapiens
Assay: Concentration required to inhibit 50% growth of Human CEM T-lymphocytes cells
Assay type: functional, cell-based
Conditions: CCRF-CEM
By convention, pIC50 is the negative base-10 log of a molar concentration.

Fill blank: measured pIC50 of the compound O=C(/C=C/c1ccc(C(F)(F)F)cc1)c1ccc(O)cc1 is ____. 5.73

Need pIC50, item O=C(/C=C/c1ccccc1)Oc1ccc(C(=O)/C=C/c2ccc(Cl)cc2)cc1 4.34

GET /values?readout=pIC50&item= CN(C)Cc1cc(/C=C/C(=O)c2ccc(Cl)c(Cl)c2)cc(CN(C)C)c1O 4.98

Fill in: pIC50 of O=C(/C=C/C=C/c1ccccc1)c1ccc(O)cc1 is ___ 5.00

Quick check: pIC50 of CN(C)Cc1cc(/C=C/C(=O)c2ccc(Br)cc2)cc(CN(C)C)c1O ? 4.66

Looking for the measured pIC50 of CN(C)Cc1cc(C(=O)/C=C/c2cccc(Cl)c2)cc(CN(C)C)c1O , can you help? 5.57

Fill blank: measured pIC50 of the compound O=C(/C=C/c1ccc(O)cc1)c1ccccc1 [4-HYDROXYCHALCONE] is ____. 5.03

Which pIC50 value belongs to COc1ccc(/C=C/C(=O)c2ccc(O)cc2)cc1 ? 5.23

Requested read-out: pIC50. Entry: CN(C)Cc1cc(C(=O)/C=C/c2ccc(Cl)cc2Cl)cc(CN(C)C)c1O 5.31
